System Tested: human NOX4 (Homo sapiens, UniProt Q9NPH5)
Construct: The full-length human NOX4 (NM_016931.3) transcript was cloned
Measurement Protocol: Amplex Red activity assay (cellular H2O2 formation in hNOX4 T-REx-293 cells)
Details: tet-induced 24 h, extracellular H2O2 by Amplex Red, 60 min 25° C., geometric mean if determined several times
Protocol: The nucleotide sequence and the amino acid sequence for the human NOX4 (Entrez Gene ID 50507) is known in the art and are published. The potency and efficacy of the compounds of Formula (I) are assessed for their potential to inhibit the formation of ROS in a cellular assay. […] Cellular H2O2 formation was measured using the Amplex Red reagent. […] Fluorescence was measured for each well and the fluorescence at 600 nm wavelength was compared to the fluorescence of the vehicle in place of compound. […]
pIC50: −log10 of the molar value.
Endpoint Name: pIC50

# Compound, Observed Value
data = [
    ("CN1CCOc2ccc(C(=O)Nc3ccc4oc(N5CCC56CCOCC6)nc4c3)cc21", 5.47),
    ("O=C(Nc1ccc2oc(N3CCC4(CCCO4)CC3)nc2c1)c1ccc2c(c1)CCO2", 6.27),
]

[I] COC1CCN(c2nc3cc(NC(=O)c4ccc5c(c4)CCO5)ccc3s2)C1 (centres unmarked)
[II] O=C(Nc1ccc2oc(N3CC4(CCOCC4)C3)nc2c1)c1ccc2c(c1)CCO2
[III] O=C(Nc1ccc2sc(N3CCC34COC4)nc2c1)c1ccc2c(c1)CCO2
Order the items by recorded pIC50; the first position goes to the largest value. Use the labels to give the requested order. III, II, I

----------
System Tested: human NOX4 (Homo sapiens)
Construct: The full-length human NOX4 (NM_016931.3) transcript was cloned
Measurement Protocol: Amplex Red activity assay (cellular H2O2 formation in hNOX4 T-REx-293 cells)
Details: tet-induced 24 h, extracellular H2O2 by Amplex Red, 60 min 25° C., geometric mean if determined several times
Experimental: The nucleotide sequence and the amino acid sequence for the human NOX4 (Entrez Gene ID 50507) is known in the art and are published. The potency and efficacy of the compounds of Formula (I) are assessed for their potential to inhibit the formation of ROS in a cellular assay. […] Cellular H2O2 formation was measured using the Amplex Red reagent. […] Fluorescence was measured for each well and the fluorescence at 600 nm wavelength was compared to the fluorescence of the vehicle in place of compound. […]
pIC50: −log10 of the molar value.
Endpoint Name: pIC50

# Molecule, System Tested, pIC50
data = [
    ("O=C(Nc1ccc2oc(N3CCC(O)CC3)nc2c1)c1ccc2c(c1)OCCO2", "human NOX4 (Homo sapiens)", 5.91),
    ("CN1CCN(c2nc3cc(NC(=O)c4ccc5c(c4)CCCO5)ccc3o2)CC1", "human NOX4 (Homo sapiens)", 5.75),
]

[1] O=C(Nc1ccc2oc(N3CCCC3=O)nc2c1)c1ccc2c(c1)CCO2
[2] O=C(Nc1ccc2sc(N3CCC3c3ccccc3)nc2c1)c1ccc2c(c1)CCO2 (racemic)
Lab note: check whether 1 or 2 shows the higher recorded pIC50. Output the label that corresponds to your choice. 2

----------
System Tested: human NOX4 (Homo sapiens, UniProt Q9NPH5)
Construct: The full-length human NOX4 (NM_016931.3) transcript was cloned
Sequence (Q9NPH5 1-578): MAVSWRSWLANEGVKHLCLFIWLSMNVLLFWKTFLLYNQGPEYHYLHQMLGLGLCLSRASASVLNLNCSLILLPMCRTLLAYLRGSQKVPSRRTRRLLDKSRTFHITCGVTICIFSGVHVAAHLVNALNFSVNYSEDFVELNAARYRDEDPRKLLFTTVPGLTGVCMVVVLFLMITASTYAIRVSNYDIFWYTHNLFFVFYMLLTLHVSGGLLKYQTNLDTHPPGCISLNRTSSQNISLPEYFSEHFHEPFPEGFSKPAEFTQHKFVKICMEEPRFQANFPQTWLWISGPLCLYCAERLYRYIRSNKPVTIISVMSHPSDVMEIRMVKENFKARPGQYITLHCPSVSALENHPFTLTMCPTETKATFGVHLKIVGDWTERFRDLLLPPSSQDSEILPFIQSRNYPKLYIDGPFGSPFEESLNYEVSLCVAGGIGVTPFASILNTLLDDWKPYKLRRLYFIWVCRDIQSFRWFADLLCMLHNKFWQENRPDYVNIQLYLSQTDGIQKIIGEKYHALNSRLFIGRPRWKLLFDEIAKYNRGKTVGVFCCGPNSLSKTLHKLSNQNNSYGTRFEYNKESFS
Sequence (P13498 1-195 partner): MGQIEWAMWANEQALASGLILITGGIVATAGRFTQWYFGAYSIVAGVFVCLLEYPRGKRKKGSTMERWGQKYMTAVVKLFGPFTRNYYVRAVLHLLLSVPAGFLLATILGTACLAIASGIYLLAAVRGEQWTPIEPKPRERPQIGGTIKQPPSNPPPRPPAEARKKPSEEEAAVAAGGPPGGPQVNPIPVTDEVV
Measurement Protocol: Amplex Red activity assay (cellular H2O2 formation in hNOX4 T-REx-293 cells)
Details: tet-induced 24 h, extracellular H2O2 by Amplex Red, 60 min 25° C., geometric mean if determined several times
pIC50: −log10 of the molar value.
Endpoint Name: pIC50

# Compound, System Tested, Endpoint Name, Observed Value
measured = [
    ("O=C(Nc1ccc2c(c1)CCO2)c1ccc2sc(N3CCCCC3)nc2c1 [Example 196]", "human NOX4 (Homo sapiens, UniProt Q9NPH5)", "pIC50", 5.59),
    ("O=C(Nc1ccc2oc(N3CCCC3)nc2c1)c1ccc2c(c1)OCO2 [Example 127]", "human NOX4 (Homo sapiens, UniProt Q9NPH5)", "pIC50", 5.90),
    ("O=C(Nc1ccc2oc(N(C3CC3)C3COC3)nc2c1)c1ccc2c(c1)OCCO2 [Example 176]", "human NOX4 (Homo sapiens, UniProt Q9NPH5)", "pIC50", 5.53),
]

[I] O=C(Nc1ccc2oc(N3CCCC34COC4)nc2c1)c1ccc2c(c1)CCCO2 [Example 147]
[II] O=C(Nc1ccc2sc(N3CCCC3)nc2c1)c1ccc2c(c1)CCO2 [Example 84]
[III] COC1CCN(c2nc3cc(NC(=O)c4ccc5c(c4)CCO5)ccc3s2)CC1 [Example 95]
[IV] CC(C)(C)OC(=O)C1CN(c2nc3cc(NC(=O)c4ccc5c(c4)CCO5)ccc3o2)C1 [Example 37]
Sort low-to-high on pIC50, please. Order the labels as requested and give them as your answer. III, II, IV, I

----------
System Tested: human NOX4 (Homo sapiens, UniProt Q9NPH5)
Construct: The full-length human NOX4 (NM_016931.3) transcript was cloned
Sequence (Q9NPH5 1-578): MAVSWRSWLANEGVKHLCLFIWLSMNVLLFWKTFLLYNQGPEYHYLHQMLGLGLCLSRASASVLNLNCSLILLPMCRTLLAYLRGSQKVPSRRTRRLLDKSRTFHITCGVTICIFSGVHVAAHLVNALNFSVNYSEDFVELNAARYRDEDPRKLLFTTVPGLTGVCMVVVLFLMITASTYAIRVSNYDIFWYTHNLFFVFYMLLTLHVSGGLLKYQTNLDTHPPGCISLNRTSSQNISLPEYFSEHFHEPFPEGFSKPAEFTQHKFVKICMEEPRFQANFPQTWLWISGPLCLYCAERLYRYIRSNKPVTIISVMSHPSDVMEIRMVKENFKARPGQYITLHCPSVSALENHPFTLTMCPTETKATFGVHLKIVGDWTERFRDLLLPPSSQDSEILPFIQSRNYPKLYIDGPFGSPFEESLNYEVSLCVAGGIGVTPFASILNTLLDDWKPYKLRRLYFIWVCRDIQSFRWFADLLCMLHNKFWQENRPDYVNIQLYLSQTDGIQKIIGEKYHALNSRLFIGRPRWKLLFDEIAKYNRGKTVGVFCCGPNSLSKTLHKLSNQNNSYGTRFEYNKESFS
Sequence (P13498 1-195 partner): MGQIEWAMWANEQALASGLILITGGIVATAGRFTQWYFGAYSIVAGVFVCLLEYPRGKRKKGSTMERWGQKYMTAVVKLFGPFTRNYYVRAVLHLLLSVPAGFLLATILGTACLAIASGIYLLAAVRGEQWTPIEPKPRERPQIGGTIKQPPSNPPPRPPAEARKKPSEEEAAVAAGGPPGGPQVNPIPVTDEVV
Measurement Protocol: Amplex Red activity assay (cellular H2O2 formation in hNOX4 T-REx-293 cells)
Details: tet-induced 24 h, extracellular H2O2 by Amplex Red, 60 min 25° C., geometric mean if determined several times
Endpoint Name: IC50 (nM)

# Compound, Endpoint Name, Result Unit, Observed Value
rows = [
    ("O=C(Nc1ccc2oc(N3CC(F)(F)C3)nc2c1)c1ccc2c(c1)CCO2", "IC50", "nM", 1890),
]

[1] COC1CCN(c2nc3cc(NC(=O)c4ccc5c(c4)CCO5)ccc3o2)CC1
[2] O=C(Nc1ccc2oc(N3CCC4(CCO4)CC3)nc2c1)c1ccc2c(c1)CCO2
[3] CCN(CC)c1nc2cc(NC(=O)c3ccc4c(c3)OCO4)ccc2o1
[4] CN(C)CC1CCCN1c1nc2cc(NC(=O)c3ccc4c(c3)CCO4)ccc2o1 (centres unmarked)
Sort the compounds on IC50; start with the lowest figure. Please list the labels according to the requested order. 1, 2, 3, 4

[P] O=C(Nc1ccc2oc(N3CCC34CCC4)nc2c1)c1ccc2c(c1)CCO2
[Q] O=C(Nc1ccc2c(c1)CCO2)c1ccc2oc(N3CCCC3)nc2c1
[R] O=C(Nc1ccc2c(c1)OCCO2)c1ccc2sc(N3CCC34CCOC4)nc2c1 (centres unmarked)
[S] CC(C)OC1CN(c2nc3cc(NC(=O)c4ccc5c(c4)CCO5)ccc3s2)C1
Sort by IC50, descending. Kindly provide the labels arranged according to the requested ordering. S, R, Q, P

[a] O=C(Nc1ccc2oc(N3CCS(=O)(=O)CC3)nc2c1)c1ccc2c(c1)OCCO2
[b] COC1CCCN(c2nc3cc(NC(=O)c4ccc5c(c4)CCO5)ccc3o2)C1 (centres unmarked)
Smaller IC50 value? Options are a and b Your answer should be the label attached to the chosen record. a
(a: 444 nM, b: 731 nM)
